Form field: logP (one value per entry).

COC(=O)c1ccncn1; -0.27

logP recorded for this compound, `N#Cc1ncccn1` , is -0.31

logP recorded for this compound, `CCOc1ccnnc1` , is 0.2

logP recorded for this compound, `CCOC(=O)c1ccnnc1` , is 0.23

logP recorded for this compound, `CCCOc1cnccn1` , is 1.84

logP recorded for this compound, `COc1ccncn1` , is 0.54

logP recorded for this compound, `COc1cccnn1` , is 0.08

logP recorded for this compound, `Cc1cccnn1` , is -0.35

====

Test: method code SF-AS, from DOI: 10.1002/qsar.19900090404
Endpoint name: logP
Note: the reply should be a number with no unit written.

Here's what some known entries look like.
CCOC(=O)c1cncnc1; 0.52
NC(=O)c1ccncn1; -0.68
CSc1cnccn1; 1.17
NC(=O)c1cncnc1; -0.92
CCOc1cnccn1; 1.28

logP recorded for this molecule, `CN(C)c1cncnc1` , is 0.46

logP recorded for this molecule, `Clc1ncccn1` , is 0.36

logP recorded for this molecule, `NC(=O)c1ccnnc1` , is -0.96

logP recorded for this molecule, `N#Cc1cnccn1` , is -0.01

logP recorded for this molecule, `Fc1ccccn1` , is 0.84

logP recorded for this molecule, `COC(=O)c1ccnnc1` , is -0.27

Numbers sourced from the SangsterLogP compilation.
